Origin of values: the supplement of paper PMC5998384

Field: solubility in G1/S (log2). Provide a value for each of the sequences that follow.
- Test system: HeLa Kyoto;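 note: HeLa Kyoto cells arrested at G1/S by double thymidine block, proteins quantified by TMT10plex mass spectrometry in mild NP-40 versus SDS extracts, three biological replicates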
- Protocol Summary: solubility in G1/S (NP-40 vs SDS abundance) (log2 ratio); higher = more soluble
- Test Conditions: cell cycle stage: G1/S
I'd appreciate a reply containing only the number, no unit.

Enquiry: Which value of solubility in G1/S (log2) has been reported for MREYKLVVLGSGGVGKSALTVQFVQGIFVEKYDPTIEDSYRKQVEVDCQQCMLEILDTAGTEQFTAMRDLYMKNGQGFALVYSITAQSTFNDLQDLREQILRVKDTEDVPMILVGNKCDLEDERVVGKEQGQNLARQWCNCAFLESSAKSKINVNEIFYDLVRQINRKTPVEKKKPKKKSCLLL [RAP1A] in the records?
Return: 0.0631

Enquiry: Okay, and MEEMSGESVVSSAVPAAATRTTSFKGTSPSSKYVKLNVGGALYYTTMQTLTKQDTMLKAMFSGRMEVLTDSEGWILIDRCGKHFGTILNYLRDGAVPLPESRREIEELLAEAKYYLVQGLVEECQAALQNKDTYEPFCKVPVITSSKEEQKLIATSNKPAVKLLYNRSNNKYSYTSNSDDNMLKNIELFDKLSLRFNGRVLFIKDVIGDEICCWSFYGQGRKIAEVCCTSIVYATEKKQTKVEFPEARIYEETLNILLYEAQDGRGPDNALLEATGGAAGRSHHLDEDEERERIERVRRIHIKRPDDRAHLHQ [KCTD10] ?
Return: -1.29

Enquiry: Okay, and MASKCPKCDKTVYFAEKVSSLGKDWHKFCLKCERCSKTLTPGGHAEHDGKPFCHKPCYATLFGPKGVNIGGAGSYIYEKPLAEGPQVTGPIEVPAARAEERKASGPPKGPSRASSVTTFTGEPNTCPRCSKKVYFAEKVTSLGKDWHRPCLRCERCGKTLTPGGHAEHDGQPYCHKPCYGILFGPKGVNTGAVGSYIYDRDPEGKVQP [CRIP2] ?
Return: 0.608

Enquiry: Okay, and MAAALWGFFPVLLLLLLSGDVQSSEVPGAAAEGSGGSGVGIGDRFKIEGRAVVPGVKPQDWISAARVLVDGEEHVGFLKTDGSFVVHDIPSGSYVVEVVSPAYRFDPVRVDITSKGKMRARYVNYIKTSEVVRLPYPLQMKSSGPPSYFIKRESWGWTDFLMNPMVMMMVLPLLIFVLLPKVVNTSDPDMRREMEQSMNMLNSNHELPDVSEFMTRLFSSKSSGKSSSGSSKTGKSGAGKRR [EMC7] ?
Return: 0.424

Enquiry: Okay, and MANSANTNTVPKLYRSVIEDVINDVRDIFLDDGVDEQVLMELKTLWENKLMQSRAVDGFHSEEQQLLLQVQQQHQPQQQQHHHHHHHQQAQPQQTVPQQAQTQQVLIPASQQATAPQVIVPDSKLIQHMNASNMSAAATAATLALPAGVTPVQQILTNSGQLLQVVRAANGAQYIFQPQQSVVLQQQVIPQMQPGGVQAPVIQQVLAPLPGGISPQTGVIIQPQQILFTGNKTQVIPTTVAAPTPAQAQITATGQQQPQAQPAQTQAPLVLQVDGTGDTSSEEDEDEEEDYDDDEEEDKEKDGAEDGQVEEEPLNSEDDVSDEEGQELFDTENVVVCQYDKIHRSKNKWKFHLKDGIMNLNGRDYIFSKAIGDAEW [GTF2A1] ?
Return: -0.719

Enquiry: Okay, and MSQSRHRAEAPPLEREDSGTFSLGKMITAKPGKTPIQVLHEYGMKTKNIPVYECERSDVQIHVPTFTFRVTVGDITCTGEGTSKKLAKHRAAEAAINILKANASICFAVPDPLMPDPSKQPKNQLNPIGSLQELAIHHGWRLPEYTLSQEGGPAHKREYTTICRLESFMETGKGASKKQAKRNAAEKFLAKFSNISPENHISLTNVVGHSLGCTWHSLRNSPGEKINLLKRSLLSIPNTDYIQLLSEIAKEQGFNITYLDIDELSANGQYQCLAELSTSPITVCHGSGISCGNAQSDAAHNALQYLKIIAERK [PRKRA] ?
Return: 0.0756

Enquiry: Okay, and MALLSTVRGATWGRLVTRHFSHAARHGERPGGEELSRLLLDDLVPTSRLELLFGMTPCLLALQAARRSVARLLLQAGKAGLQGKRAELLRMAEARDIPVLRPRRQKLDTMCRYQVHQGVCMEVSPLRPRPWREAGEASPGDDPQQLWLVLDGIQDPRNFGAVLRSAHFLGVDKVITSRRNSCPLTPVVSKSSAGAMEVMDVFSTDDLTGFLQTKAQQGWLVAGTVGCPSTEDPQSSEIPIMSCLEFLWERPTLLVLGNEGSGLSQEVQASCQLLLTILPRRQLPPGLESLNVSVAAGILLHSICSQRKGFPTEGERRQLLQDPQEPSARSEGLSMAQHPGLSSGPEKERQNEG [MRM1] ?
Return: -0.178
